# systemTested: UPF2L (UniProt Q9HAU5 121-1227)
# Sequence (Q9HAU5 121-1227): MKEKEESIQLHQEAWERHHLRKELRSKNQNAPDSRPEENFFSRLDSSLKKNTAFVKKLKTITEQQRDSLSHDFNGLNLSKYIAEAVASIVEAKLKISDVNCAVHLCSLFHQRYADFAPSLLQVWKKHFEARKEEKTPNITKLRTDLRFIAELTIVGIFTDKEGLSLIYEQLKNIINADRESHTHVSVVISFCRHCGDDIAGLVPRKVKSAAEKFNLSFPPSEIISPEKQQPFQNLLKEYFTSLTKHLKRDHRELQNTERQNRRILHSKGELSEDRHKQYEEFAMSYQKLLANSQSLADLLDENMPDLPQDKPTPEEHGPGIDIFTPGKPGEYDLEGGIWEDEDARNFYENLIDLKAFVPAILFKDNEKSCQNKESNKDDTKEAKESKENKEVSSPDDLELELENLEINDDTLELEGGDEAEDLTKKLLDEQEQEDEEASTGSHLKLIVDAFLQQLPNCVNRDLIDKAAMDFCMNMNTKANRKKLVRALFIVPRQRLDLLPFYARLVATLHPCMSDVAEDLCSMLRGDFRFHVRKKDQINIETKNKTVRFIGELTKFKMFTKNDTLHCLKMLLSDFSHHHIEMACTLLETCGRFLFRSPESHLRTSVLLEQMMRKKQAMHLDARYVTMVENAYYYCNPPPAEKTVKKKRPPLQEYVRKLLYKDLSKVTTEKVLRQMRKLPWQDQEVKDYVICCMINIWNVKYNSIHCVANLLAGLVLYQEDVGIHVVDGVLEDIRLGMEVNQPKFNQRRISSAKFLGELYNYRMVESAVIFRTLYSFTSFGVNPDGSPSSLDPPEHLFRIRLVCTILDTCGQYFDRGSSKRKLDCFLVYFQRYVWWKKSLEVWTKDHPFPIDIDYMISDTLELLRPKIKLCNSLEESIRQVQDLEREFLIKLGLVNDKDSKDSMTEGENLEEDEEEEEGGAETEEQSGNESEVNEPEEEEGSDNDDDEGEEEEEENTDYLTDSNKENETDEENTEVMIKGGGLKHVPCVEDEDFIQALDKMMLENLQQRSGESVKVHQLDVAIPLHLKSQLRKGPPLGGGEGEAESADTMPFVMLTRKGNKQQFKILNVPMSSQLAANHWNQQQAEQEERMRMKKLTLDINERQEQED
# assayRemarks: fluorescence anisotropy; FA: 25 mM HEPES pH 7.45, 150 mM NaCl, 5% glycerol, 10 nM probe, temperature not stated; EMSA: 250 nM probe in 25 mM HEPES pH 7.45, 100 mM NaCl, 5% glycerol (protein dilution buffer 300 nM [sic] NaCl, 2 mM bME or 1 mM TCEP), 1 h on ice, gel at 4 C
# protocolConditions: protein: recombinant; tags: C-terminal TEV site and His6; label: 5' HEX; hairpin with bulges
measuredAttribute: pKd
// pKd here means minus log10 of the molar concentration (mol/L)

Per the records, this binder ( CCCUGAGCUGACGCAGCACCUGGG (structured_RNA) [24 nt hp-RNA] ) has pKd equal to 6.65
